- protocol: Study on stability under influencing factors (high temperature, high humidity, light) of the crystal forms
- Type: physicochemical
- testConditions: 60° C., open, 10 days
measuredQuantity: Impurity content (%)

Just so you know, measured Impurity content for Cn1cc(-c2nc(N=S(C)(C)=O)ccc2Oc2ccc(F)cc2F)c2cc[nH]c2c1=O [crystal form F] came out at 0.20

Value of Impurity content reported for the molecule Cn1cc(-c2nc(N=S(C)(C)=O)ccc2Oc2ccc(F)cc2F)c2cc[nH]c2c1=O [crystal form E] is 0.21

[P] Cn1cc(-c2nc(N=S(C)(C)=O)ccc2Oc2ccc(F)cc2F)c2cc[nH]c2c1=O [crystal form D]
[Q] Cn1cc(-c2nc(N=S(C)(C)=O)ccc2Oc2ccc(F)cc2F)c2cc[nH]c2c1=O [crystal form I]
Request: # returns the entry with the larger Impurity content; inputs P and Q Choose, then provide that item's label.
Result: Q
(Q: 1.21%, P: 0.27%)
